The measured values listed here are drawn from patent US9309222B2.

# ASSAYED TARGET: human RORγt LBD (Homo sapiens, UniProt P51449)
# ASSAY NAME: RORγt reporter assay (GAL4-RORγt LBD luciferase in HEK293T cells)
# MEASUREMENT CONTEXT: HEK293T cells, 24 hours compound treatment
MEASURED PROPERTY: IC50

In the examples that follow, each entry is paired with its recorded IC50.
molecule="CCc1nc2ccc(C(O)(c3ccc(F)cc3)c3cccnc3)cc2c(Cl)c1-c1ccccc1 (stereo not drawn) [Example 30]" assayed_target="human RORγt LBD (Homo sapiens, UniProt P51449)" measured_property=IC50 result="~300 nM"
molecule="Cn1ccnc1C(O)(c1ccc2nc(Cl)c(-c3ccccc3)c(Cl)c2c1)c1cnccn1 (stereo not drawn) [Example 123]" assayed_target="human RORγt LBD (Homo sapiens, UniProt P51449)" measured_property=IC50 result="~6000 nM"

Data point: CN(C)c1c(-c2ccccc2)c(Cl)nc2ccc(C(O)(c3cccnc3)c3cccc(Cl)c3)cc12 (stereo not drawn) [Example 42] ; IC50 = ~2000 nM

----------
# Tested on: IL-17 production by CD4 T cells
# ASSAY NAME: Human Th17 assay (IL-17 production by CD4 T cells under Th17 differentiation conditions)
# Format: cell-based
# MEASUREMENT CONTEXT: IL-17 in supernatant after 3 days
pIC50: −log10 of the molar value.
# pIC50 per entry

// below: answered molecules
molecule=OC(c1cccnc1)(c1cccnc1)c1ccc2nc(Cl)c(-c3ccccc3)c(Cl)c2c1 result=~6.70
molecule="OC(c1ccccc1)(c1cccnc1)c1ccc2nc(Cl)c(-c3ccccc3)c(Cl)c2c1 (stereo not drawn)" result=~6.15

Let us examine a further case.
Sure, the documented pIC50 for Cn1cncc1C(O)(c1ccc(Cl)cc1)c1ccc2nc(Cl)c(-c3ccccc3Cl)c(Cl)c2c1 (racemic) [Example 153a] is ~6.15

----------
Recorded measurements of pIC50, one per entry
# System: IL-17 production by CD4 T cells
# ASSAY NAME: Human Th17 assay (IL-17 production by CD4 T cells under Th17 differentiation conditions)
# Format: cell-based
# MEASUREMENT CONTEXT: Homo sapiens, CD4+ T, 72 h, IL-17 in supernatant after 3 days
pIC50: −log10 of the molar value.

Below: 3 compounds and their reported pIC50.
compound="COc1nc2c(C)cc(C(O)(c3ccc(C(F)(F)F)nc3)c3cncn3C)cc2c(C#N)c1-c1cccc(F)c1 (single isomer, unassigned) [Example 179c]" assayed_target="IL-17 production by CD4 T cells" measured_property=pIC50 result=~6.00
compound="Cn1cncc1C(O)(c1ccc(Cl)cc1)c1ccc2nc(Cl)c(-c3cccc(Cl)c3)c(Cl)c2c1 (stereo not shown)" assayed_target="IL-17 production by CD4 T cells" measured_property=pIC50 result="< 5.22"
compound="CC(=O)N1CCC(C(O)(c2cccnc2)c2ccc3nc(Cl)c(-c4ccccc4)c(Cl)c3c2)CC1 (stereo not shown)" assayed_target="IL-17 production by CD4 T cells" measured_property=pIC50 result="< 5.22"

Then this compound:
Quick note, pIC50 for OC(c1ccccc1)(c1cccnc1)c1ccc2nc(Cl)c(-c3ccccc3Cl)c(Cl)c2c1 (stereo not shown) landed at ~5.22

----------
# Tested on: IL-17 production by CD4 T cells
# ASSAY NAME: Human Th17 assay (IL-17 production by CD4 T cells under Th17 differentiation conditions)
# Type: cell-based
# MEASUREMENT CONTEXT: Homo sapiens, CD4+ T, 72 h, IL-17 in supernatant after 3 days
MEASURED PROPERTY: pIC50
Note on pIC50: it is the negative log10 of concentration, concentration in mol/L.

Reference set (3 entries):
molecule="Cn1cncc1C(O)(c1ccncc1)c1ccc2nc(Cl)c(-c3ccccc3)c(N3CCC(O)CC3)c2c1 (stereo not shown)" measured_property=pIC50 readout_number=5.92
molecule="CCN(CC)c1nc2ccc(C(O)(c3cccnc3)c3cccc(Cl)c3)cc2c(C#N)c1-c1ccccc1 (stereo not shown)" measured_property=pIC50 readout_number=6.60
molecule="Cc1cc(C(O)(c2ccc3nc(Cl)c(-c4ccccc4)c(Cl)c3c2)c2cncn2C)on1 (stereo not shown)" measured_property=pIC50 readout_number=6.89

// Cn1cncc1C(O)(c1ccc2nc(Cl)c(-c3ccccc3)c(Cl)c2c1)c1cnccn1 (stereo not shown) : pIC50 value = 6.30

# pIC50 (molecule: CN(C)c1nc2ccc(C(O)(c3ccccn3)c3cncn3C)cc2c(Cl)c1-c1ccccc1 (stereo not shown) ) is 5.80

Just so you know, measured pIC50 for N#Cc1nc2ccc(C(O)(c3ccc(C(N)=O)nc3)c3cccc(Cl)c3)cc2c(C#N)c1-c1ccccc1 (stereo not shown) came out at 6.32

response.value for OC(c1cccnc1)(c1cccnc1)c1ccc2nc(Cl)c(-c3ccccc3)c(Cl)c2c1 (field: pIC50) = 6.49

What the record says about CN(C)c1nc2ccc(C(O)(c3cccnc3)c3ccccc3Cl)cc2c(Cl)c1-c1ccccc1 (stereo not shown) : pIC50 is 6.26

----------
# Tested on: IL-17 production by CD4 T cells
# ASSAY NAME: Human Th17 assay (IL-17 production by CD4 T cells under Th17 differentiation conditions)
# Format: cell-based
# MEASUREMENT CONTEXT: Homo sapiens, CD4+ T, 72 h, IL-17 in supernatant after 3 days
IC50 strictly less than 700 nM = fulfilled. Otherwise not fulfilled.

Observe how each entry below is paired with its result.
compound="Cc1cc(C(O)(c2ccc(Cl)cc2)c2ccc3nc(N(C)C)c(-c4ccccc4)c(Cl)c3c2)on1 (stereo not shown) [Example 134]" assayed_target="IL-17 production by CD4 T cells" assigned_class="not fulfilled"
compound="Cc1cc(C(O)(c2ccc(C(F)(F)F)nc2)c2cncn2C)cc2c(C#N)c(-c3cccc(F)c3)c(C#N)nc12 (single isomer, unassigned) [Example 176c]" assayed_target="IL-17 production by CD4 T cells" assigned_class=fulfilled
compound="Cc1ncc(C(O)(c2ccc(Cl)cc2)c2ccc3nc(C#N)c(-c4ccccc4)c(Cl)c3c2)n1C (stereo not shown) [Example 139]" assayed_target="IL-17 production by CD4 T cells" assigned_class=fulfilled

Task: For CN(C)c1nc2ccc(C(O)(c3ccc(Cl)cc3)c3cccnc3)cc2c(Cl)c1-c1ccccc1 (stereo not shown) [Example 32] , is the recorded IC50 below the cut-off of 700 nM?
Output: not fulfilled

Task: Is the reported IC50 for Cn1cncc1C(O)(c1ccc(Cl)cc1)c1ccc2nc(Cl)c(-c3ccccc3Cl)c(Cl)c2c1 (racemic) [Example 153a] strictly below 700 nM?
Output: fulfilled

Task: Please determine if COc1ccc(C(O)(c2ccc3nc(Cl)c(-c4ccccc4)c(Cl)c3c2)c2c(C)noc2C)cn1 (stereo not shown) [Example 129] is below 700 nM in terms of IC50.
Output: fulfilled

Task: Dear colleague, could you confirm whether IC50 of CC(C)Oc1nc2ccc(C(O)(c3ccncc3)c3cncn3C)cc2c(Cl)c1-c1ccccc1 (stereo not shown) [Example 89] falls below 700 nM? Thanks.
Output: fulfilled

Task: Is the reported IC50 for Cn1cncc1C(O)(c1ccncc1)c1ccc2nc(C(F)(F)F)c(-c3ccccc3)c(C(F)(F)F)c2c1 (stereo not shown) [Example 164] strictly below 700 nM?
Output: fulfilled

----------
# ASSAYED TARGET: human RORγt LBD (Homo sapiens, UniProt P51449)
# Sequence (P51449 258-518): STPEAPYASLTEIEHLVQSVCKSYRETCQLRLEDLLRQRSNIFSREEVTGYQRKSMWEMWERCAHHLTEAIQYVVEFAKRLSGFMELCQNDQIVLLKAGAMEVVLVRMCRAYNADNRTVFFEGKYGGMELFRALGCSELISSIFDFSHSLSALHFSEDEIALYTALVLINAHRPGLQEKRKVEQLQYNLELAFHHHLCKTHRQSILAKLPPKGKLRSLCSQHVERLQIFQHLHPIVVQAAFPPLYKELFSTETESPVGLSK
# ASSAY NAME: RORγt reporter assay (GAL4-RORγt LBD luciferase in HEK293T cells)
# MEASUREMENT CONTEXT: HEK293T cells, 24 hours compound treatment
MEASURED PROPERTY: pIC50
Lab note: report pIC50 as minus log10 of the concentration in molar units, number only.

Observe how each entry below is paired with its result.
compound="OC(c1ccccc1)(c1cccnc1)c1ccc2nc(Cl)c(-c3ccccc3Cl)c(Cl)c2c1 (stereo not drawn)" readout_number=6.62
compound="Cn1ccnc1C(O)(c1cncnc1)c1ccc2nc(Cl)c(-c3ccccc3)c(Cl)c2c1 (stereo not drawn)" readout_number=6.00
compound="CN(C)c1c(-c2ccccc2)c(Cl)nc2ccc(C(O)(c3ccc(Cl)cc3)c3cccnc3)cc12 (stereo not drawn)" readout_number=5.70
compound="CC(=O)N1CCC(C(O)(c2ccccc2)c2ccc3nc(C(F)(F)F)c(-c4ccccc4)c(C(F)(F)F)c3c2)CC1 (racemic) [Example 169a]" readout_number=7.14
compound="CN(C)c1nc2ccc(C(O)(c3ccccn3)c3cncn3C)cc2c(Cl)c1-c1ccccc1 (stereo not drawn)" readout_number=6.54
compound="Cn1cncc1C(O)(c1ccncc1)c1ccc2nc(Cl)c(-c3ccccc3)c(N3CCC(O)CC3)c2c1 (stereo not drawn)" readout_number=6.44
compound="CN(C)c1c(-c2ccccc2)c(Cl)nc2ccc(C(O)(c3cccnc3)c3ccccc3Cl)cc12 (stereo not drawn)" readout_number=5.80
compound="COC(c1ccncc1)(c1ccc2nc(N(C)C)c(-c3ccccc3)c(Cl)c2c1)c1cncn1C (stereo not drawn)" readout_number=6.85
compound="COc1nc2c(C)cc(C(O)(c3ccc(C(F)(F)F)nc3)c3cncn3C)cc2c(Cl)c1-c1cccc(F)c1 (single isomer, unassigned) [Example 177c]" readout_number=6.44
compound="OC(c1ccc(Cl)cc1)(c1cccnc1)c1ccc2nc(-c3cncnc3)c(-c3ccccc3)c(Cl)c2c1 (stereo not drawn)" readout_number=6.46

// pIC50 lookup, compound = COc1cc(C(O)(c2ccc3nc(Cl)c(-c4ccccc4)c(Cl)c3c2)c2cncn2C)ccn1 (stereo not drawn) , result: 8.24

CN(C)c1nc2ccc(C(O)(c3ccc(Cl)cc3)c3cccnc3)cc2c(Cl)c1-c1ccccc1 (stereo not drawn) has a reported pIC50 of 7.03

Recorded pIC50 (compound Cc1cc(C(O)(c2ccc(Cl)cc2)c2ccc3nc(N(C)C)c(-c4ccccc4)c(Cl)c3c2)on1 (stereo not drawn) ): 6.28

pIC50 in this record for CCOc1nc2ccc(C(O)(c3ccncc3)c3cncn3C)cc2c(N(C)C)c1-c1ccccc1 (stereo not drawn) : 6.92
